- Method Summary: KARI assay of purified S. exigua KARI and variants with NADH (Examples 6-9)
- Type: biochemical
- Run Parameters: read-out: Km for cofactor NADH
Property Label: Km (µM)
Answers are plain numbers, in µM.

Query: What does the data say about its Km? Entry: Se1_KARI^1AA10: S. exigua KARI variant S61C, S63D, I95T (protein, UniProt D0WGK0 1-342, looked up, variant S61C S63D I95T) Ketol-acid reductoisomerase …: MSVKTKEKEMAVTILYEQDVDPKVIQGLKVGIIGYGSQGHAHALNLMDSGVDVRVGLREGCSDWKTAEEAGLKVTDMDTAAEEADVIMVLVPDETQPKVYQEHIAAHLKAGNTLAFAHGFNIHYGYIVPPEDVNVIMCAPKGPGHIVRRQFTEGSGVPDLACVQQDATGNAWDIVLSYCWGVGGARSGIIKATFAEETEEDLFGEQAVLCGGLVELVKAGFETLTEAGYPPELAYFECYHEMKMIVDLMYESGIHFMNYSISNTAEYGEYYAGPKVINEQSREAMKEILKRIQDGSFAQEFVDDCNNGHKRLLEQREAINTHPIETTGAQIRSMFSWIKKED
Reply: 62
